Just for reference, paper PMC4472782 is where these values come from.

method-summary: Microsomal stability analysis in dog liver microsomes
Type: in vitro ADME
condition-notes: pH 7.4, dog liver microsomes, NADPH omitted, read-out: NADPH-free T1/2
parameter: half-life (h)
Respond numerically; units are h and should not be typed.

Looking up CCCCC#Cc1ccc(-c2nc(C)c(/C(C)=N/NC(=N)N)s2)cc1 , I see its half-life listed as 5.85

----------
Could you please report measured MBC Range for the items listed next?
Test system: methicillin-sensitive Staphylococcus pseudintermedius
method-summary: MBC determination against MSSP clinical isolates
Format: cell-based
condition-notes: nine MSSP isolates
Procedure: The MBC was determined by plating 5 μL from wells on the 96-well microtiter plate (where the MIC was determined) where no growth was observed onto Tryptic soy agar (TSA) plates. […] The MBC was categorized as the concentration where ≥99% reduction in bacterial cell count was observed.

Given item C/C(=N\NC(=N)N)c1sc(-c2ccc(-c3ccc(C(F)(F)F)cc3)cc2)nc1C [Compound 5] , the value recorded as its MBC Range is 0.21 to 6.67 µg/mL

Lab note: C/C(=N\NC(=N)N)c1sc(-c2ccc(-c3ccccc3)cc2)nc1C [Compound 2] gave MBC Range of 0.15 to 2.42 µg/mL

The recorded MBC Range for CO[C@H]1/C=C/O[C@@]2(C)Oc3c(C)c(O)c4c(O)c(c(/C=N/N5CCN(C)CC5)c(O)c4c3C2=O)NC(=O)/C(C)=C\C=C\[C@H](C)[C@H](O)[C@@H](C)[C@@H](O)[C@@H](C)[C@H](OC(C)=O)[C@@H]1C [Rifampicin, rifampicin, reference compound] is <0.41 µg/mL

Please fill in: MBC Range reported for C/C(=N\NC(=N)N)c1sc(-c2ccc(-c3ccc(F)cc3)cc2)nc1C [Compound 4] = 0.18 to 2.94 µg/mL

Measured MBC Range, CCCCC#Cc1ccc(-c2nc(C)c(/C(C)=N/NC(=N)N)s2)cc1 [Compound 3] : 0.18 to 1.41 µg/mL

For this compound ( CCCCc1ccc(-c2nc(C)c(/C(C)=N/NC(=N)N)s2)cc1 [Compound 1] ), measured MBC Range is 0.17 to 2.77 µg/mL

Noted for C/C(=N\NC(=N)N)c1sc(-c2ccc(-c3cccc4ccccc34)cc2)nc1C [Compound 6] : its MBC Range reads 0.20 to 3.19 µg/mL

----------
Test system: MRSP SP3
method-summary: Time-kill analysis against MRSP
Type: cell-based, Staphylococcus pseudintermedius
condition-notes: 4 × MIC, MRSP SP3, 24 hour incubation at 37°C
parameter: time required to completely eliminate MRSP

CCCCC#Cc1ccc(-c2nc(C)c(/C(C)=N/NC(=N)N)s2)cc1 ... within two hours
C/C(=N\NC(=N)N)c1sc(-c2ccc(-c3ccccc3)cc2)nc1C ... eight hours
C/C(=N\NC(=N)N)c1sc(-c2ccc(-c3ccc(F)cc3)cc2)nc1C ... 12 h
C/C(=N\NC(=N)N)c1sc(-c2ccc(-c3cccc4ccccc34)cc2)nc1C ... within two hours

Here's the next entry for you.
Form: compound = C/C(=N\NC(=N)N)c1sc(-c2ccc(-c3ccc(C(F)(F)F)cc3)cc2)nc1C ; time required to completely eliminate MRSP = eight hours

----------
method-summary: Microsomal stability analysis in dog liver microsomes
Type: in vitro ADME
condition-notes: pH 7.4, dog liver microsomes, with NADPH, duplicate, read-out: NADPH-dependent CLint
parameter: microsomal CLint (µL/min/mg)
Answer in µL/min/mg, number only, no unit symbol.

Sample CCCCC#Cc1ccc(-c2nc(C)c(/C(C)=N/NC(=N)N)s2)cc1 ; microsomal CLint observed: 18.7

----------
method-summary: Kinetic (turbidimetric) solubility in PBS
Type: physicochemical
condition-notes: aqueous buffer, kinetic from dmso stock; phosphate-buffered saline; highest concentration with no precipitate; read-out: Solubility Limit
parameter: solubility at 2 h (µg/mL)
Record the value in µg/mL, omitting the unit from your answer.

Value of measured solubility at 2 h for the entry CCCCC#Cc1ccc(-c2nc(C)c(/C(C)=N/NC(=N)N)s2)cc1 [Compound 3] : 5.51

----------
System: MRSP SP3
method-summary: Checkerboard assay of thiazole compounds with oxacillin
Type: cell-based, Staphylococcus pseudintermedius
condition-notes: combination with oxacillin, ≤ 0.5 synergistic, > 0.5 to ≤ 4.0 indifference, > 4 antagonistic
parameter: ƩFIC
Just the number, please, no unit after it.

Recorded result, C/C(=N\NC(=N)N)c1sc(-c2ccc(-c3ccccc3)cc2)nc1C [Compound 2] , ƩFIC: 0.56

In plain terms, C/C(=N\NC(=N)N)c1sc(-c2ccc(-c3cccc4ccccc34)cc2)nc1C [Compound 6] has a documented ƩFIC of 0.38

Sample C/C(=N\NC(=N)N)c1sc(-c2ccc(-c3ccc(C(F)(F)F)cc3)cc2)nc1C [Compound 5] ; ƩFIC observed: 0.38

Record CCCCc1ccc(-c2nc(C)c(/C(C)=N/NC(=N)N)s2)cc1 [Compound 1] . Reported ƩFIC: 0.19

Noted for CCCCC#Cc1ccc(-c2nc(C)c(/C(C)=N/NC(=N)N)s2)cc1 [Compound 3] : its ƩFIC reads 0.38

Lookup result for C/C(=N\NC(=N)N)c1sc(-c2ccc(-c3ccc(F)cc3)cc2)nc1C [Compound 4] ; measured ƩFIC: 0.63

----------
System: murine macrophage cell line (J774.A1)
method-summary: In vitro cytotoxicity analysis (MTS assay)
Type: cell-based
condition-notes: 10 μg/mL, J774.A1, two hours
parameter: toxicity to murine macrophage cells (MTS assay)

// below: answered compounds
C/C(=N\NC(=N)N)c1sc(-c2ccc(-c3ccc(C(F)(F)F)cc3)cc2)nc1C ... not toxic
C/C(=N\NC(=N)N)c1sc(-c2ccc(-c3ccccc3)cc2)nc1C ... toxic
CCCCc1ccc(-c2nc(C)c(/C(C)=N/NC(=N)N)s2)cc1 ... toxic
C/C(=N\NC(=N)N)c1sc(-c2ccc(-c3cccc4ccccc34)cc2)nc1C ... toxic
C/C(=N\NC(=N)N)c1sc(-c2ccc(-c3ccc(F)cc3)cc2)nc1C ... not toxic

Now take the following compound into account.
In plain terms, CCCCC#Cc1ccc(-c2nc(C)c(/C(C)=N/NC(=N)N)s2)cc1 has a documented toxicity to murine macrophage cells (MTS assay) of not toxic

----------
Exercise: for every item that follows, state its recorded MIC50.
System: methicillin-resistant Staphylococcus pseudintermedius
method-summary: MIC by broth microdilution against MRSP clinical isolates
Format: cell-based
condition-notes: Staphylococcus pseudintermedius; six MRSP isolates; triplicate; read-out: MIC50
Counter-ions that a name gives are not always drawn.
Numbers only here, please. The scale is µg/mL.

Reported MIC50 for C/C(=N\NC(=N)N)c1sc(-c2ccc(-c3cccc4ccccc34)cc2)nc1C was 0.4

For record CCC[C@@H]1C[C@@H](C(=O)N[C@@H]([C@H]2O[C@H](SC)[C@H](O)[C@@H](O)[C@H]2O)[C@H](C)Cl)N(C)C1 [Clindamycin, Clindamycin hydrochloride monohydrate, reference compound] the listed MIC50 is 0.48

The reported value for CCCCc1ccc(-c2nc(C)c(/C(C)=N/NC(=N)N)s2)cc1 in terms of MIC50 is 0.69

Please fill in: MIC50 reported for C/C(=N\NC(=N)N)c1sc(-c2ccc(-c3ccccc3)cc2)nc1C = 0.46

Reported MIC50 of CCCCC#Cc1ccc(-c2nc(C)c(/C(C)=N/NC(=N)N)s2)cc1 : 0.48

Record C/C(=N\NC(=N)N)c1sc(-c2ccc(-c3ccc(C(F)(F)F)cc3)cc2)nc1C , field MIC50: 0.42

----------
System: MRSP SP3
method-summary: Post-antibiotic effect against MRSP
Type: cell-based, Staphylococcus pseudintermedius
condition-notes: 4 × MIC for one hour
Structures can show the parent of a compound that is named as a salt.
parameter: Post-antibiotic Effect (h)
Just the number please, in h, no unit attached.

Note to self: Post-antibiotic Effect recorded for C/C(=N\NC(=N)N)c1sc(-c2ccc(-c3ccccc3)cc2)nc1C was 8

# compound CCC[C@@H]1C[C@@H](C(=O)N[C@@H]([C@H]2O[C@H](SC)[C@H](O)[C@@H](O)[C@H]2O)[C@H](C)Cl)N(C)C1 [Clindamycin, Clindamycin hydrochloride monohydrate, reference compound] ; its Post-antibiotic Effect = 2

Short answer for C/C(=N\NC(=N)N)c1sc(-c2ccc(-c3ccc(C(F)(F)F)cc3)cc2)nc1C : Post-antibiotic Effect was 8

----------
System: MRSP SP3
method-summary: Post-antibiotic effect against MRSP
Format: cell-based, Staphylococcus pseudintermedius
condition-notes: 4 × MIC for one hour
Assign Post-antibiotic Effect to each entry below.

The reported value for C/C(=N\NC(=N)N)c1sc(-c2ccc(-c3cccc4ccccc34)cc2)nc1C [Compound 6] in terms of Post-antibiotic Effect is >9 h

Post-antibiotic Effect for CCCCC#Cc1ccc(-c2nc(C)c(/C(C)=N/NC(=N)N)s2)cc1 [Compound 3] is >9 h

Entry CCCCc1ccc(-c2nc(C)c(/C(C)=N/NC(=N)N)s2)cc1 [Compound 1] — recorded Post-antibiotic Effect = >9 h
